Read-out: Vascular cell adhesion molecule 1 (VCAM1), VCAM1 (gene 7412)
assay.procedure: BSK_4H_VCAM1: BioMAP Diversity Plus: 4H Assay for Vascular cell adhesion molecule 1 (VCAM1) Biomarker Activity (AID 2283033)
experimental.context: primary human endothelial cells (HUVEC); actives raise or lower the signal
Protocol: BSK_4H is a cell-based, multiplexed-readout assay that uses umbilical vein endothelium, a human vascular primary cell, with measurements taken at 24 hours after chemical dosing in a 96-well plate.BSK_4H_VCAM1 is an assay component measured in the BSK_4H assay. It measures VCAM-1 antibody related to regulation of gene expression using ELISA technology.Data from the assay component BSK_4H_VCAM1 was analyzed into 1 assay endpoint. […]
Active and inactive are the calls of the source. The calls were made as follows: active = hit-call score of the fitted dose curve at least 0.9, where 1 is the maximum; inactive = score below 0.9.
// one of label 1 for active, label 0 for inactive, no free text

These solved cases illustrate the format of a correct answer.
molecule	discrete.label
CCOC(=O)CC(CC(=O)OCC)(OC(C)=O)C(=O)OCC	label 0
COc1cccc(-c2ccc(/C=C\CN3CCCCCC3)cc2Cl)c1	label 1
CC(C)CCCCCCCOC(=O)CCCCC(=O)OCCCCCCCC(C)C	label 0

Req: What outcome does the record of this test show for CC(C)=CCCC(C)=CC=O ?
Resp: label 0

Req: What outcome does the record of this test show for CC(=O)OC[C@H]1O[C@@](COC(C)=O)(O[C@H]2O[C@H](COC(C)=O)[C@@H](OC(C)=O)[C@H](OC(C)=O)[C@H]2OC(C)=O)[C@@H](OC(C)=O)[C@@H]1OC(C)=O ?
Resp: label 0

Req: What outcome does the record of this test show for NC(=O)NO ?
Resp: label 0

Req: What outcome does the record of this test show for O=C(CCCCCCCCc1cccnc1)N1CCC(C=C(c2ccccc2)c2ccccc2)CC1 ?
Resp: label 1

###

Read-out: ABC Transporter (ABCB11), ABCB11 (gene 8647)
assay.procedure: LTEA_HepaRG_ABCB11: Life Technologies and Expression Analysis (LTEA) Assay for ABC Transporter (ABCB11) using HepaRG (AID 2283463)
experimental.context: mRNA level, 48 h; actives raise or lower the signal
Calls of active or inactive are those of the source. Rule for the calls: active = hit-call score of the fitted dose curve at least 0.9, where 1 is the maximum; inactive = score below 0.9.
// one of active, inactive, no free text

These solved cases illustrate the format of a correct answer.
molecule	discrete.label
O=C(O)c1cccc(N(Cc2cccnc2)c2ccc(OC(F)F)c(OC(F)F)c2)c1	active
CCCN(C1CCN(C(=O)C2CCNCC2)CC1)[C@@H]1CCc2ccc(OC)cc2C1	active
CCCC(=O)OCC	inactive
Fc1ccccc1[C@@H](F)COC1CCC(Nc2ncnc3[nH]ncc23)CC1 (stereo partly drawn)	active

Req: What outcome does the record of this test show for COC(=O)CC(=O)OC ?
Resp: inactive

Req: What outcome does the record of this test show for COc1cccc(-c2ccc(/C=C\CN3CCCCCC3)cc2Cl)c1 ?
Resp: active

Req: What outcome does the record of this test show for CC[C@H](C)C(=O)O[C@H]1C[C@@H](C)C=C2C=C[C@H](C)[C@H](CC[C@@H]3C[C@@H](O)CC(=O)O3)[C@H]21 ?
Resp: active

Req: What outcome does the record of this test show for O=C(O)CC(O)C(=O)O (stereo not drawn) ?
Resp: inactive

Req: What outcome does the record of this test show for CC(C)=CCC/C(C)=C\CO ?
Resp: inactive

###

assay.procedure: ATG_NFI_CIS: Attagene CIS-FACTORIAL HepG2 Assay for human Nuclear Factor I (NFI) (AID 2282989)
experimental.context: HepG2 cis-regulatory reporter, NFI response element transcription; actives raise or lower the signal
Active and inactive are the calls of the source. Rule for the calls: active = hit-call score of the fitted dose curve at least 0.9, where 1 is the maximum; inactive = score below 0.9.
// one of yes = active, no = inactive, no free text

These solved cases illustrate the format of a correct answer.
> print(dat)
                                    molecule  discrete.label
 1   CNCc1ccc(NC(=O)c2c[nH]c3c2C(=O)CCC3)cc1              no
 2                              Cc1ccc(O)cc1              no
 3                            CC(=O)OCCC(C)C              no
 4                    Cc1ccc(S(=O)(=O)O)cc1C              no
 5  COc1ccc(-n2nc(C(F)F)cc2-c2ccc(S(C)=O)cc2)cc1 (stereo not drawn)              no
 6  CC(O)CN(CCN(CC(C)O)CC(C)O)CC(C)O (stereo not drawn)              no
 7  CC(C)(O)c1coc(S(=O)(=O)NC(=O)Nc2c3c(cc4c2CCC4)CCC3)c1              no
 8  CC(=O)c1ccc2c(c1)[C@H](NC(=O)c1ccc(F)cc1)[C@@H](O)C(C)(C)O2              no
 9                 CC1(C)C(=O)N(Br)C(=O)N1Br              no
10           C[C@](N)(Cc1ccc(O)c(O)c1)C(=O)O              no

Req: What outcome does the record of this test show for CCCCCCc1ccc(O)cc1O ?
Resp: no

Req: What outcome does the record of this test show for NC(=O)NO ?
Resp: no

Req: What outcome does the record of this test show for CN(C)c1ccc(Cc2ccc(N(C)C)cc2)cc1 ?
Resp: yes
